- tested system: T1, RacA DBD R30A (Bacillus subtilis, UniProt P45870 1-70, R30A)
- T1 sequence: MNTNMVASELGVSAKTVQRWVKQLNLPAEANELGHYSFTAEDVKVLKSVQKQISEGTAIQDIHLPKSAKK
- assay overview: fluorescence polarization
parameter measured: Kd

q: Kd for 14mer ram centromere site (FP) (dsDNA) DNA 1: TGACGCCGGCGTCA DNA 2: TGACGCCGGCGTCA ?
a: ~50 µM
